testTarget: DAPK3 (Homo sapiens, UniProt O43293)
Construct: purchased in-house thermal shift (DSF) kinase panel (SGC Frankfurt); Promega NanoBRET for AURKA/B/C
Sequence (O43293 9-289): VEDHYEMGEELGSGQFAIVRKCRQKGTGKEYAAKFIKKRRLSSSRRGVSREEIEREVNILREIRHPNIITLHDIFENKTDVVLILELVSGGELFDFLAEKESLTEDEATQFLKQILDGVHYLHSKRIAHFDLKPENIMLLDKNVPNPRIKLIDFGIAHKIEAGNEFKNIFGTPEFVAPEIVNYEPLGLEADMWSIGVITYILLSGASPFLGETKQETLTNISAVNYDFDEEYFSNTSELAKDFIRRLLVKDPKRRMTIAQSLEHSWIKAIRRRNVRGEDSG
procedureDetails: Thermal shift assay
Format: binding
measurementConditions: compound 10 µM; n = 3; read-out: ΔTm DAPK3
For each of the molecules below, state its ΔTm at 10 µM.
Numbers only, in °C.

compoundSmiles | unitName | ΔTm at 10 µM
O=C(Cc1ccc(Nc2ncc(F)c(Nc3ccc(C(=O)Nc4ccccc4Cl)cc3)n2)cc1)NCCN1CCOCC1 | °C | 2.4
CCN1CCN(C(=O)Cc2ccc(Nc3ncc(F)c(Nc4ccc(C(=O)Nc5ccccc5)cc4)n3)cc2)CC1 | °C | 3.5
NC(=O)Cc1ccc(Nc2ncc(F)c(Nc3ccc(C(=O)Nc4ccccc4Cl)cc3)n2)cc1 | °C | 4.8

Let's switch to this molecule now.
Input: Identify the reported ΔTm at 10 µM for the following entry. CCN1CCN(C(=O)Cc2ccc(Nc3ncc(F)c(Nc4ccc(C(=O)O)cc4)n3)cc2)CC1
Output: 0.7

Entry source: paper PMC8776063
